Kindly supply the reported MIC values for the records listed here.
Test system: Staphylococcus aureus
Experiment: Antibacterial activity against Staphylococcus aureus ATCC 25923 after 18 hrs by phase 2 broth microdilution method
Assay type: functional
Conditions: ATCC 25923, 18 h
The reply must contain the numeric value and, after it, the unit.

Recorded MIC, per entry:
> print(dat)
                                 itemsmiles           targetsystem  assaymetric         val
1  O=C(N/N=C/c1ccc2c(c1)no[n+]2[O-])c1ccc(Cl)cc1  Staphylococcus aureus          MIC  15.3 µg/mL
2  COc1ccc(C(=O)N/N=C/c2ccc3c(c2)no[n+]3[O-])cc1  Staphylococcus aureus          MIC  16.2 µg/mL
3  O=C(N/N=C/c1ccc2c(c1)no[n+]2[O-])c1ccc(I)cc1  Staphylococcus aureus          MIC  23.6 µg/mL
4  O=C(N/N=C/c1ccc2c(c1)no[n+]2[O-])c1ccc(C(F)(F)F)cc1  Staphylococcus aureus          MIC  13.1 µg/mL
5  O=C(N/N=C/c1ccc2c(c1)no[n+]2[O-])c1ccc(O)cc1  Staphylococcus aureus          MIC  26.2 µg/mL
6  CC(=O)c1ccc(C(=O)N/N=C/c2ccc3c(c2)no[n+]3[O-])cc1  Staphylococcus aureus          MIC  21.2 µg/mL

# batch: return MIC for each of the 6 compounds below
1. O=C(N/N=C/c1ccc2c(c1)no[n+]2[O-])c1ccccc1
2. O=C(N/N=C/c1ccc2c(c1)no[n+]2[O-])c1ccc(F)cc1
3. Nc1ccc(C(=O)N/N=C/c2ccc3c(c2)no[n+]3[O-])cc1
4. O=C(N/N=C/c1ccc2c(c1)no[n+]2[O-])c1ccc(Br)cc1
5. N#Cc1ccc(C(=O)N/N=C/c2ccc3c(c2)no[n+]3[O-])cc1
6. Cc1ccc(C(=O)N/N=C/c2ccc3c(c2)no[n+]3[O-])cc1

Reply:
1. 16.2 µg/mL
2. 14.6 µg/mL
3. 15.3 µg/mL
4. 18 µg/mL
5. 26.2 µg/mL
6. 21 µg/mL

====

Test system: Staphylococcus aureus
Assay: Antibacterial activity against multidrug-resistant Staphylococcus aureus 3SP/R33 after 18 hrs by phase 2 broth microdilution method
Assay type: functional
Output label 1 for records whose MIC is lower than 20 mg/L, label 0 for records at or above 20 mg/L.

# count of solved cases: 5
> print(dat)
                                 itemsmiles  categorylabel
1  O=C(N/N=C/c1ccc2c(c1)no[n+]2[O-])c1ccc(C(F)(F)F)cc1        label 1
2  COc1ccc(C(=O)N/N=C/c2ccc3c(c2)no[n+]3[O-])cc1        label 1
3  Cc1ccc(C(=O)N/N=C/c2ccc3c(c2)no[n+]3[O-])cc1        label 0
4  O=C(N/N=C/c1ccc2c(c1)no[n+]2[O-])c1ccc(F)cc1        label 1
5  Nc1ccc(C(=O)N/N=C/c2ccc3c(c2)no[n+]3[O-])cc1        label 1

Ask: Consider "O=C(N/N=C/c1ccc2c(c1)no[n+]2[O-])c1ccc(O)cc1" . Does its MIC lie strictly below 20 mg/L?
Reply: label 0

Ask: Also "O=C(N/N=C/c1ccc2c(c1)no[n+]2[O-])c1ccc(Cl)cc1" , if possible.
Reply: label 1

Ask: Also "O=C(N/N=C/c1ccc2c(c1)no[n+]2[O-])c1ccc(Br)cc1" , if possible.
Reply: label 1

Ask: Also "O=C(N/N=C/c1ccc2c(c1)no[n+]2[O-])c1ccccc1" , if possible.
Reply: label 1

Ask: Also "O=C(N/N=C/c1ccc2c(c1)no[n+]2[O-])c1ccc(I)cc1" , if possible.
Reply: label 0

Ask: Also "N#Cc1ccc(C(=O)N/N=C/c2ccc3c(c2)no[n+]3[O-])cc1" , if possible.
Reply: label 0

Ask: Also "CC(=O)c1ccc(C(=O)N/N=C/c2ccc3c(c2)no[n+]3[O-])cc1" , if possible.
Reply: label 0
